# Assay Info: Quantitative High-Throughput drug screen in 47 multiple myeloma cell lines against the NCATS MIPE library collection: MM1R_ATCC cell viability assay (AID 1918981); also: nearly all actives have a fitted effect of over 35% in size
# Setup Conditions: MM1R multiple myeloma cells, CellTiter-Glo viability, 48 h; series mostly up to 45.8 µM
Records with an inconclusive call do not appear. Calls of active or inactive are those of the source. Calls follow the shape of the dose curve; as a rule, active = well fitted cell-killing curve with a large enough effect; inconclusive = small, poorly fitted or top-dose-only effect, or effect the other way; inactive = no such curve, though single readings can be large or run the other way.
Return exactly one item of yes (1) for active, no (0) for inactive

The following compounds have reported results that may help.
Compound	Class
O=C(NC1CCNCC1)c1[nH]ncc1NC(=O)c1c(Cl)cccc1Cl	yes (1)
CC(C)(C)NC(=O)[C@H]1CN(Cc2cccnc2)CCN1C[C@@H](O)C[C@@H](Cc1ccccc1)C(=O)N[C@H]1c2ccccc2C[C@H]1O	yes (1)

Consider the additional compound presented here.
// outcome(item) with item = CCOc1ccccc1OCCNC(C)Cc1ccc(OC)c(S(N)(=O)=O)c1 (stereo not drawn)
no (0)

* * *

# Assay Info: Quantitative High-Throughput drug screen in 47 multiple myeloma cell lines against the NCATS MIPE library collection: XG6_PLB cell viability assay (AID 1919865); also: nearly all actives have a fitted effect of over 40% in size
# Setup Conditions: XG6 myeloma viability, CellTiter-Glo ATP luminescence, 48 h; series mostly up to 45.8 µM
Records with an inconclusive call do not appear. Activity calls are given as the source filed them. Calls follow the shape of the dose curve; as a rule, active = well fitted cell-killing curve with a large enough effect; inconclusive = small, poorly fitted or top-dose-only effect, or effect the other way; inactive = no such curve, though single readings can be large or run the other way.
Return exactly one item of 1.0 = active, 0.0 = inactive

The following molecules have reported results that may help.
Molecule	Class
CC(=O)Nc1sc2c(c1-c1nc3ccccc3s1)CNC2	1.0
c1cc(-c2cnn3cc(-c4ccc(OCCN5CCCCC5)cc4)cnc23)ccn1	1.0
C=C1C(=CC=C2CCC[C@]3(C)[C@@H]([C@H](C)C=C[C@H](C)C(C)C)CC[C@@H]23)C[C@@H](O)C[C@@H]1O	1.0

// outcome(item) with item = CC[C@H](CO)Nc1nc(NCc2ccccc2)c2ncn(C(C)C)c2n1
1.0

// outcome(item) with item = C=CC(=O)Nc1cc2c(Nc3ccc(F)c(Cl)c3)ncnc2cc1C#CC(C)(C)N1CCN(C)CC1
1.0

// outcome(item) with item = CCOc1ccccc1OCCNC(C)Cc1ccc(OC)c(S(N)(=O)=O)c1 (configuration not stated)
0.0

// outcome(item) with item = CC(C)c1ccc(Cn2ccc3c4c(N)nc(NC5CC5)nc4ccc32)cc1
1.0

// outcome(item) with item = CCN(CC)CCCCNc1ncc2cc(-c3cc(OC)cc(OC)c3)c(NC(=O)NC(C)(C)C)nc2n1
1.0

* * *

# Assay Info: qHTS of pediatric cancer cell lines to identify multiple opportunities for drug repurposing: Primary screen for U-2 OS cells (AID 1347096); also: nearly all actives have a fitted effect of over 50% in size
# Setup Conditions: U-2 OS viability, CellTiter-Glo luminescence, 48 h; series mostly up to 46 µM
Records with an inconclusive call do not appear. The source made the active and inactive calls. The call rests on the fitted dose curve; in most records, active means well fitted cell-killing curve with a large enough effect; inconclusive means small, poorly fitted or top-dose-only effect; inactive means flat fitted curve, though single readings scatter.
Return exactly one item of 1 (yes) = active, 0 (no) = inactive

Compound	Class
COc1ccc(-c2cc3c(C)nc(N)nc3n(C3CCC(OCCO)CC3)c2=O)cn1 (centres undefined)	1 (yes)

// outcome(item) with item = C=CC(=O)Nc1cc2c(Nc3ccc(F)c(Cl)c3)ncnc2cc1OCCCN1CCOCC1
1 (yes)

// outcome(item) with item = c1nc2nc(Nc3ccc(N4CCOCC4)cc3)nc(NC3CCCCC3)c2[nH]1
0 (no)

// outcome(item) with item = COc1cc2c(Oc3ccc(-c4cnc(Nc5ccc(F)cc5)n(C)c4=O)cc3F)ccnc2cc1OCCCN1CCOCC1
1 (yes)

* * *

# Test system: CP238
# Assay Info: qHTS profiling for inhibitors of Plasmodium falciparum proliferation (AID 504749); also: nearly all actives have a fitted effect of over 60% in size
# Setup Conditions: P. falciparum in erythrocytes, SYBR Green DNA, 72 h; series mostly up to 28.7 µM
Results filed as inconclusive are left out. The source made the active and inactive calls. Calls follow the shape of the dose curve; as a rule, active = well fitted inhibition curve with a large enough effect; inconclusive = small, poorly fitted or top-dose-only effect; inactive = flat fitted curve, though single readings scatter.
Return exactly one item of active, inactive

The following molecules have reported results that may help.
Molecule	Tested System	Class
COc1cc(C(=O)NS(=O)(=O)c2ccccc2C)ccc1Cc1cn(C)c2ccc(NC(=O)OC3CCCC3)cc12	CP238	inactive
O=c1[nH]c(=O)n(C2CCCO2)cc1F (stereo not drawn)	CP238	inactive

// outcome(item) with item = COC(=O)C1=C(C)NC(C)=C(C(=O)OCCN2CCN(C(c3ccccc3)c3ccccc3)CC2)C1c1cccc([N+](=O)[O-])c1 (stereo not drawn)
active

* * *

# Assay Info: qHTS of pediatric cancer cell lines to identify multiple opportunities for drug repurposing: Confirmatory screen for A673 cells (AID 1347110);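 also: cells exposed to compound for 48 h before the viability read; nearly all actives have a fitted effect of over 65% in size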
# Setup Conditions: A673 Ewing sarcoma cell viability; series mostly up to 45.9 µM
Inconclusive results are not listed. Active and inactive are the calls of the source. Calls follow the shape of the dose curve; as a rule, active = well fitted cell-killing curve with a large enough effect; inconclusive = small, poorly fitted or top-dose-only effect; inactive = flat fitted curve, though single readings scatter.
Return exactly one item of active, inactive

The following compounds have reported results that may help.
CCS(=O)(=O)c1cccc(-c2cc(C(=O)NC3CCN(C)CC3)c(C)c3[nH]c4ncc(C)cc4c23)c1 active
CC(C)(C)NC(=O)[C@H]1CN(Cc2cccnc2)CCN1C[C@@H](O)C[C@@H](Cc1ccccc1)C(=O)N[C@H]1c2ccccc2C[C@H]1O inactive
CNC(=O)c1nn(C)c2c1C(C)(C)Cc1cnc(Nc3ccc(N4CCN(C)CC4)cc3)nc1-2 active
Cc1nc(Nc2n[nH]c3c2CN(C(=O)N[C@H](CN(C)C)c2ccccc2)C3(C)C)c2sccc2n1 active
CC1(C)CCC(c2ccc(Cl)cc2)=C(CN2CCN(c3ccc(C(=O)NS(=O)(=O)c4ccc(N[C@H](CCN5CCOCC5)CSc5ccccc5)c(S(=O)(=O)C(F)(F)F)c4)cc3)CC2)C1 active
O=C(Cc1ccc(-c2ccc(OCCN3CCOCC3)cc2)cn1)NCc1ccccc1 active
Cc1c(Cn2c(C)nc3c(C(=O)O)cc(N4CCOCC4)cc32)cccc1C(F)(F)F inactive

Consider the additional compound presented here.
// outcome(item) with item = O=C(Nc1cn[nH]c1-c1nc2ccc(CN3CCOCC3)cc2[nH]1)NC1CC1
inactive

* * *

# System: CP305
# Assay Info: qHTS profiling for inhibitors of Plasmodium falciparum proliferation (AID 504749); also: nearly all actives have a fitted effect of over 60% in size
# Setup Conditions: P. falciparum in erythrocytes, SYBR Green DNA, 72 h; series mostly up to 28.7 µM
# Procedure: NIH National Institute of Allergy and Infectious Diseases [NIAID] NIH Chemical Genomics Center [NCGC] […] Because mature erythrocytes lack DNA, only Plasmodium-derived DNA is detected. NCGC Assay Protocol Summary: The SYBR Green viability assay was adapted from a method described previously (Plouffe et al., 2008). […] The following morning, fluorescence intensity at 485(14) nm excitation and 535(25) nm emission wavelengths was measured on an EnVision (Perkin Elmer) plate reader. […]
Results filed as inconclusive are left out. Active and inactive are the calls of the source. The call rests on the fitted dose curve; in most records, active means well fitted inhibition curve with a large enough effect; inconclusive means small, poorly fitted or top-dose-only effect; inactive means flat fitted curve, though single readings scatter.
Return exactly one item of true (1) = active, false (0) = inactive

COc1cc(C(=O)NS(=O)(=O)c2ccccc2C)ccc1Cc1cn(C)c2ccc(NC(=O)OC3CCCC3)cc12 false (0)
O=C(O)CO.[NH2-].[NH2-].[Pt+2] false (0)
Nc1ccn([C@@H]2CS[C@H](CO)O2)c(=O)n1 false (0)

Consider the additional compound presented here.
// outcome(item) with item = Nc1ccn([C@@H]2O[C@H](CO)[C@H](O)C2(F)F)c(=O)n1
true (1)

* * *

# Assay Info: Quantitative High-Throughput drug screen in 47 multiple myeloma cell lines against the NCATS MIPE library collection: FR4_PLB cell viability assay (AID 1918924; also: nearly all actives have a fitted effect of over 35% in size)
# Setup Conditions: FR4_PLB myeloma cells viability, CellTiter-Glo ATP, 48 h; series mostly up to 45.8 µM
# Text: PI: Beverly A. Mock Ph.D. Laboratory of Cancer Biology and Genetics, Center for Cancer Research, National Cancer Institute, National Institute of Health, Bethesda, Maryland […] 5; Detector; 425V; Luminescence; Viewlux PerkinElmer. […] 1. […] Briefly, the corresponding myeloma cell lines were screened in 1,536-well plates with 500 cells, 5-uL per well for inhibition of cell viability (assessed by measuring ATP levels with CellTiterGlo). […]
Records with an inconclusive call do not appear. Active and inactive are the calls of the source. Calls follow the shape of the dose curve; as a rule, active = well fitted cell-killing curve with a large enough effect; inconclusive = small, poorly fitted or top-dose-only effect, or effect the other way; inactive = no such curve, though single readings can be large or run the other way.
Return exactly one item of true = active, false = inactive

The following compounds have reported results that may help.
Compound	Class
C[C@@H](Oc1cc(-c2cnn(C3CCNCC3)c2)cnc1N)c1c(Cl)ccc(F)c1Cl	true
Cc1[nH]c2ccccc2c1CCNCc1ccc(C=CC(=O)NO)cc1	true
C=CC(=O)Nc1cc2c(Nc3ccc(F)c(Cl)c3)ncnc2cc1OCCCN1CCOCC1	true
CC[C@@]1(O)C(=O)OCc2c1cc1n(c2=O)Cc2cc3cc(O)ccc3nc2-1	true
c1ccc2c(CCNc3ccc(Nc4ccncc4)cc3)c[nH]c2c1	false

// outcome(item) with item = CNc1nccc(-c2cccnc2Oc2cc(C(=O)Nc3cccc(C(F)(F)F)c3)ccc2C)n1
true

// outcome(item) with item = O=C(O)C1(Cc2cccc(Nc3nccs3)n2)CCC(Oc2cccc(Cl)c2F)CC1 (centres undefined)
true

// outcome(item) with item = CN(C1CCc2c(c3ccccc3n2CC(=O)O)C1)S(=O)(=O)c1ccc(F)cc1 (centres undefined)
false

// outcome(item) with item = CCOC(=O)C1=C(C)NC2=C(C(=O)CC(C)(C)C2)C1c1ccc(-c2ccccc2)cc1 (centres undefined)
true

// outcome(item) with item = Cc1cc(Nc2cc(CN3CCOCC3)c3nc(C)c(Cc4ccc(Cl)cc4F)n3n2)n[nH]1
true
